Hello, the source for this data is paper PMC4076210, in case you need it.

Test system: hematological tumor cell lines
Experiment: 3-day proliferation assay (CellTiter-Glo)
Format: cell-based, human
Conditions: Homo sapiens, RCH-ACV cell line; ALL; pre-B Cell
measured-metric: IC50

test-smiles: Cn1ncc(Cl)c1-c1cc(C(=O)N[C@H](CN)Cc2cccc(F)c2)sc1Cl
data-value: 668 nM

Field: next compound
Let me know recorded IC50 for Cn1ncc(Cl)c1-c1cc(C(=O)N[C@H](CN)Cc2ccc(F)c(F)c2)oc1Cl , thanks.
157 nM

###

Please respond with reported IC50 for every item in the list.
Target: UniProtKB P17612
Assay: Kinase IC50 assay
Assay type: biochemical
Answers are plain numbers, in nM.

molecule: Cn1ncc(Cl)c1-c1cc(C(=O)N[C@H](CN)Cc2ccc(F)c(F)c2)oc1Cl [GSK2141795]
target-under-test: UniProtKB P17612
IC50 (nM): 2

Field: next molecule
Let me know recorded IC50 for Cn1ncc(Cl)c1-c1cc(C(=O)N[C@H](CN)Cc2cccc(F)c2)sc1Cl [GSK2110183] , thanks.
1.3
